Tested on: SMMC-7721 (human hepatoma cells)
PROCEDURE DETAILS: MTT inhibition of tumor cell growth, SMMC-7721
Assay type: cell-based
MEASUREMENT CONDITIONS: Table 5, derivatives having double Michael reaction acceptor, 48 h
QUANTITY KIND: IC50

INSERT INTO assay_data (compound, reported) VALUES
  ('[NH2][Pt]([NH2])([Cl])[Cl] [cis-DDP, reference compound]', '8.86 µM');

----------
Test system: HL-60 (human promyelocytic leukemia cells)
PROCEDURE DETAILS: MTT inhibition of tumor cell growth, HL-60
Format: cell-based
MEASUREMENT CONDITIONS: Table 2, derivatives having potential Michael reaction acceptor, 48 h
QUANTITY KIND: IC50 (µM)

INSERT INTO assay_data (molecule, quantity_kind, endpoint_unit, reported) VALUES
  ('[NH2][Pt]([NH2])([Cl])[Cl] [cis-DDP, reference compound]', 'IC50', 'µM', 1.81);
